measurementProtocol: Volume of distribution at steady state in fasted Sprague-Dawley rat at 0.4 mg/kg, iv by LC-MS/MS analysis
Type: ADME, organism-based
statedConditions: in vivo, read-out: Vdss
Non-standard residues stand in square brackets, D forms with d. Residues, ends and D or L forms follow the SMILES beside them. *: point of attachment. Benzoyl(4-OPh(4-CONH2)) = NC(=O)c1ccc(Oc2ccc(C(=O)*)cc2)cc1; Benzenesulfonyl(4-OPh) = O=S(=O)(c1ccc(Oc2ccccc2)cc1)*; NMeI = CC[C@H](C)[C@H](NC)C(=O)O; NMeE = CN[C@@H](CCC(=O)O)C(=O)O; β3hP = O=C(O)C[C@@H]1CCCN1; Dab = NCC[C@H](N)C(=O)O; Ava = NCCCCC(=O)O; GABA = NCCCC(=O)O
Provide the recorded Vd for the entries that follow.
Answers are plain numbers, in L/kg.

In the examples that follow, each entry is paired with its recorded Vd.
IN: Look up Vd: CC[C@H](C)[C@@H](C(=O)N1CCC[C@H]1CC(N)=O)N(C)C(=O)[C@H](CC(C)C)NC(=O)[C@H](C)NC(=O)[C@H](CC(=O)O)NC(=O)[C@H](CC(N)=O)NC(=O)CCCNS(=O)(=O)c1ccc(Oc2ccccc2)cc1 ({Benzenesulfonyl(4-OPh)-GABA}-NDAL[NMeI][β3hP]-NH2)
OUT: 0.882

IN: Using the record for CC(C)C[C@H](NC(=O)[C@H](CCN)NC(=O)[C@H](CC(=O)O)NC(=O)[C@H](CC(N)=O)NC(=O)CCCNS(=O)(=O)c1ccc(Oc2ccccc2)cc1)C(=O)N(C)[C@@H](CCC(=O)O)C(=O)N1CCC[C@H]1CC(N)=O ({Benzenesulfonyl(4-OPh)-GABA}-ND[Dab]L[NMeE][β3hP]-NH2) , report its Vd.
OUT: 0.275

Now look at this one.
IN: Recorded Vd for CC(C)C[C@H](NC(=O)[C@H](CCN)NC(=O)[C@H](CC(=O)O)NC(=O)[C@H](CC(N)=O)NC(=O)CCCCNC(=O)c1ccc(Oc2ccc(C(N)=O)cc2)cc1)C(=O)N(C)[C@@H](CCC(=O)O)C(=O)N1CCC[C@H]1CC(N)=O ({Benzoyl(4-OPh(4-CONH2))-Ava}-ND[Dab]L[NMeE][β3hP]-NH2) , please?
OUT: 0.267
